tested.on: S. aureus TrmD (Staphylococcus aureus, UniProt Q2FZ43)
Construct: made in house; host or cells: E. coli BL21
Sequence (Q2FZ43 1-245): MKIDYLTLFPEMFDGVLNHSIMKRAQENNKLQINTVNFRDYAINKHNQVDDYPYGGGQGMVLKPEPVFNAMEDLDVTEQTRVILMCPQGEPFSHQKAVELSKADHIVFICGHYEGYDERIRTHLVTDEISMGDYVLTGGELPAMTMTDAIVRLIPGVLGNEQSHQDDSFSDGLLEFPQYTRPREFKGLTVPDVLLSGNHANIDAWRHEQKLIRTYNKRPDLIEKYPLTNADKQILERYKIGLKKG
experiment.summary: nanoSAR direct-to-biology FP displacement screening of crude triazoles
Assay type: binding
particulars: crude triazole at 1 μM, assuming full conversion; 500 nM TrmD, 10 nM tracer 4; read-out: % displaced tracer
Classify as follows. Reported inhibition at 1 µM greater than or equal to 30%: Fulfilled. Reported inhibition at 1 µM below: Not fulfilled.

For orientation, consider the following solved cases.
compound	cat
O=c1[nH]cnc2[nH]cc(-c3cn([C@H]4CCCCC[C@@H]4O)nn3)c12	Not fulfilled
O=c1[nH]cnc2[nH]cc(-c3cn([C@H]4CC5(CCCC5)Oc5ccc(Cl)cc54)nn3)c12	Fulfilled
O=c1[nH]cnc2[nH]cc(-c3cn(-c4cccc5ccncc45)nn3)c12	Not fulfilled
C[C@H](c1ccccc1Cl)n1cc(-c2c[nH]c3nc[nH]c(=O)c23)nn1	Fulfilled
COC(=O)C1(n2cc(-c3c[nH]c4nc[nH]c(=O)c34)nn2)CC1	Not fulfilled

Pending compound:
Ask: Hi, just wondering whether O=c1[nH]cnc2[nH]cc(-c3cn(C[C@H]4CCCO4)nn3)c12 shows inhibition at 1 µM of 30% or higher.
Reply: Not fulfilled

The reported measurements were obtained from paper PMC12751012.
